tested on: SNB-19 CNS; assay: NCI-60 one-dose screen, 48 h (100 = growth as untreated, 0 = no growth, -100 = all killed); conditions: 10 µM unless noted
The panel holds about 83,000 compounds, 20% with a hit somewhere; the sample as a whole holds those more often. Active and inactive are the calls of the source. The calls were made as follows: active = growth percent below 10; inactive = the rest.
Attribute: growth

Take a look at these entries with their results.
I'd like to know its growth. The molecule in question is O=C1[C@H]2Cc3c([nH]c4ccccc34)[C@H](c3ccc(Br)cc3)N2C(=O)CN1C1CCN(CC2CCCCC2)CC1
83.3% (inactive)

# growth lookup, item Brc1cccc(-c2cc(-c3ccc4c(c3)OC=CO4)[nH]n2)c1
48.6% (inactive)

Consider the molecule O=C(/C=C/c1cccc(F)c1)c1cccc(OCCCCOc2cccc(C(=O)/C=C/c3cccc(F)c3)c2)c1 and give its measured growth.
94% (inactive)

Look up growth for this molecule: COc1ccc([C@H]2C(=O)N(c3cc(OC)c(OC)c(OC)c3)[C@@H]2c2ccc(OC)c(O)c2)cc1
28.3% (inactive)

Which growth reading was recorded for the molecule Cc1ccc(Nc2nc(SC(C)C)nc(-c3ccccc3)c2C#N)cc1 ?
97.1% (inactive)

Recorded growth for N#Cc1c(-c2cccs2)cc(-c2cnccn2)nc1SCC(=O)N/N=C/c1ccccc1 , please?
39.7% (inactive)

Fill in: growth of CC(=O)OCCCCN1C=C/C(=C\C(=O)n2ccc3ccccc32)c2ccccc21 is ___
103% (inactive)

Given C#C[C@]1(O)CC[C@H]2[C@@H]3CC=C4c5sc(Nc6cc(C)cc(C)c6)nc5CC[C@]4(C)[C@H]3CC[C@@]21C , state its recorded growth.
14.8% (inactive)

Next:
Look up growth: Nc1ncc(-c2ccc3ncnc(NCc4ccccc4)c3c2)cn1
52% (inactive)

For the molecule shown here, C#CCN(C)CCCOc1ccc(NC(=O)CCCCCCCCC(=O)NO)cc1Cl , give the reported growth.
77.3% (inactive)

====

tested on: U251 CNS; assay: NCI-60 one-dose screen, 48 h (100 = growth as untreated, 0 = no growth, -100 = all killed); conditions: 10 µM unless noted
The panel holds about 83,000 compounds, 20% with a hit somewhere; the sample as a whole holds those more often.
Here, each record is paired with measured growth data.
Report as a plain number; the unit % is understood.

Example molecules with recorded growth:
So what does the record say about growth for Clc1ccc2[nH]cc(-c3nn4cc(-c5ccncc5)nc4s3)c2c1 ?
52.5

I would be grateful if you could share the reported growth for O=C(CCCCCC/C=C\c1csc(Br)n1)NO .
91.4

***
Bench note: what growth did CC(Nc1ncnc2ccc(-c3cnc(N)nc3)cc12)c1ccccc1 (stereo not drawn) show?
47

====

test system: KM12 colon; assay: NCI-60 one-dose screen, 48 h; conditions: 10 µM unless noted
About 83,000 compounds went through this panel and 20% of them were active in at least one assay; those are over-represented in the sample as a whole. The source made the active and inactive calls. Rule for the calls: active = growth percent below 10; inactive = the rest.
The reply should name one outcome from yes (1) = active, no (0) = inactive

Consider the worked cases shown below.
Could you please tell me the result logged for CCCCOc1ccc(S(=O)(=O)N2CCN(c3nc(C)cc(N4CCOCC4)n3)CC2)cc1 in this assay?
yes (1)

Would you mind telling me which call this test gave COc1ccc(NC(=O)CCCCCCNC(=O)C(O)(O)C(F)(F)F)cc1 ?
no (0)

Identify the outcome logged in this assay for the molecule shown: c1ccc(-c2cn3c(-c4c[nH]c5ccccc45)csc3n2)cc1
no (0)

Could you please tell me the result logged for Cn1cc(-c2cc3ncnc(Nc4ccc(NC(=O)Nc5cc(C(C)(C)C)on5)cc4)c3s2)cn1 in this assay?
no (0)

Answer briefly: the call reported for O=C(CCCCCCNC(=O)c1csc(Br)n1)NO in this assay.
no (0)

New cases:
Record request — test call for CCCCCCN1C=C/C(=C\C(=O)n2ccc3ccccc32)c2ccccc21
no (0)
